- Tested on: HT29 colon
- PROTOCOL DESCRIPTION: NCI tumour cell line growth inhibition, 48 h
REPORTED ENDPOINT: TGI

COMPOUND: CCCCS(=O)CC(CO)NC(=O)/C=C/c1c(C)[nH]c(=O)[nH]c1=O (stereo not given)
TGI: 122 µM
--
COMPOUND: C[C@@](O)(/C=C/[C@H]1CC=CC(=O)O1)[C@@H](C[C@@H](O)\C=C/C=C\C=C\CO)OP(=O)(O)O
TGI: 6.33 µM
--
COMPOUND: CC(=O)NC1=C(Sc2ccc(Cl)cc2)C(=O)c2ccccc2C1=O
TGI: 25.6 µM
--
COMPOUND: COc1ccc(-c2nc3c(nc2-c2ccc(OC)cc2)N(C)S(=O)(=O)N=C3N)cc1
TGI: 74.9 µM
--
COMPOUND: Cc1c(N=NN(C)C)cc[n+]([O-])c1C
TGI: > 100 µM
--
COMPOUND: Cn1c2ccccc2c2nnc(NNCc3ccccn3)nc21
TGI: 22.9 µM
--
COMPOUND: O=C1CSC(C(N=Nc2ccc(Cl)cc2)c2nc3ccccc3[nH]2)=N1 (stereo not given)
TGI: > 100 µM
--
COMPOUND: O=C1CCC2(c3ccccc3)Nc3ccc(Cl)cc3N12 (stereo not given)
TGI: > 100 µM

Considering CCn1c(=O)c2c3cc(OC(C)=O)ccc3oc2c2ccc(OC(C)=O)cc21 , its TGI with HT29 colon was recorded as > 100 µM

Considering CCOP(=O)(CC(=O)C1=C(O)C(CCCCNC(=O)OC(C)(C)C)N(Cc2ccccc2)C1=O)OCC (stereo not given) , its TGI with HT29 colon was recorded as > 100 µM

###

The following compounds are shown together with reported GI50 values.
- Tested on: K-562 leukemia
- PROTOCOL DESCRIPTION: NCI tumour cell line growth inhibition, 48 h

Reference set (3 entries):
COMPOUND STRUCTURE STRING: O=C(c1ccccc1)c1nn(-c2ccccc2)c2nc3nc(-c4ccccc4)cc(=O)n3nc12
GI50: 21.2 µM
--
COMPOUND STRUCTURE STRING: Oc1c(CNCCNCc2cc(Cl)cc(Cc3ccccc3)c2O)cc(Cl)cc1Cc1ccccc1
GI50: 0.391 µM
--
COMPOUND STRUCTURE STRING: Cc1cc(S(N)(=O)=O)c(S/C(=N\Nc2ccc([N+](=O)[O-])cc2)c2ccc3ccccc3c2)cc1Cl
GI50: 28 µM

Query compound follows.
// GI50 lookup, compound = C[C@]12CCc3sc(-c4cccc(F)c4)nc3C1=CC[C@@H]1[C@@H]2CC[C@]2(C)C(=O)CC[C@@H]12 , result: 1.82 µM

###

- Tested on: OVCAR-8 ovarian
- PROTOCOL DESCRIPTION: NCI tumour cell line growth inhibition, 48 h
REPORTED ENDPOINT: TGI

Reference set (3 entries):
COMPOUND: COC(=O)C1=COc2c(n(C)c3ccccc23)-c2ccccc21
TGI: > 100 µM
--
COMPOUND: COc1ccc(/C=C(/c2ccccc2)c2c(C)cc(C)c(/C(=C\c3ccc(OC)cc3)c3ccccc3)c2N=Nc2cc(C)cc(C)c2)cc1
TGI: > 100 µM
--
COMPOUND: COC[C@@H](N=CN1CCc2cc(OC)c(OC)cc2C1)C(C)(C)C
TGI: > 100 µM

// TGI lookup, compound = NC(=O)C1CCCN1C(=O)N(CCCl)N=O (stereo not given) , result: > 100 µM

// TGI lookup, compound = CC(=O)NC1=C(Sc2ccc(Cl)cc2)C(=O)c2ccccc2C1=O , result: 6.77 µM
